B1: TPR t1 (parent)
chain: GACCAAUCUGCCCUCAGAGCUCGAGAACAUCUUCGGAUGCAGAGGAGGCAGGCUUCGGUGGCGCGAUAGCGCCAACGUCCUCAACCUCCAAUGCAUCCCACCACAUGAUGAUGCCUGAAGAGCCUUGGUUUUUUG

variants of: B1; test: polymerase ribozyme fitness, log enrichment relative to wild type (log ratio); higher = more active; in vitro selection for triplet polymerase activity
// label = True if polymerase ribozyme fitness (log ratio) is not less than -3, otherwise False

- G19A G45A C62U G71A: False
- C15G C34A: False
- C22U C101A: False
- G10A C11A A18C G42C G44A G60A C101A: False
- U9A A83U: True
- G10A C12U G36U C53A: True
- C11G U21G C53A U55C A68G: False
